Would you kindly list Activity, No BP, DF-2500000 for each of these binders?
- assaySystem: T1, IL-18 receptors on HEK-Blue IL-18 reporter cells (UniProt Q13478 19-541; O95256 20-599, limits assumed)
- T1 sequence (looked up) 1: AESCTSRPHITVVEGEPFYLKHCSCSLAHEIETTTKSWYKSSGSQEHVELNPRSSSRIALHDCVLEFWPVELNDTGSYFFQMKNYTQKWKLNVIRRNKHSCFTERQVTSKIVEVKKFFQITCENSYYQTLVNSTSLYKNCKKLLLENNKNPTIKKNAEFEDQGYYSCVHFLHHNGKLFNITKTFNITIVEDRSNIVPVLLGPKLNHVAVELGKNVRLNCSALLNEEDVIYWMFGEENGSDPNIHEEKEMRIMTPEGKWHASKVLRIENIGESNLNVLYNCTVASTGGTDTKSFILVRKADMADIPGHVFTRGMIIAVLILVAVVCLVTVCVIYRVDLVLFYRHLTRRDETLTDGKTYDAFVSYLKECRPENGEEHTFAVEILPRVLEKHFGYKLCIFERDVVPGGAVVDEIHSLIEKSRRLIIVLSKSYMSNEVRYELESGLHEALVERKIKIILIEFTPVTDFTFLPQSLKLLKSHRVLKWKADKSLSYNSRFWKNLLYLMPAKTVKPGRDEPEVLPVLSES
- T1 sequence (looked up) 2: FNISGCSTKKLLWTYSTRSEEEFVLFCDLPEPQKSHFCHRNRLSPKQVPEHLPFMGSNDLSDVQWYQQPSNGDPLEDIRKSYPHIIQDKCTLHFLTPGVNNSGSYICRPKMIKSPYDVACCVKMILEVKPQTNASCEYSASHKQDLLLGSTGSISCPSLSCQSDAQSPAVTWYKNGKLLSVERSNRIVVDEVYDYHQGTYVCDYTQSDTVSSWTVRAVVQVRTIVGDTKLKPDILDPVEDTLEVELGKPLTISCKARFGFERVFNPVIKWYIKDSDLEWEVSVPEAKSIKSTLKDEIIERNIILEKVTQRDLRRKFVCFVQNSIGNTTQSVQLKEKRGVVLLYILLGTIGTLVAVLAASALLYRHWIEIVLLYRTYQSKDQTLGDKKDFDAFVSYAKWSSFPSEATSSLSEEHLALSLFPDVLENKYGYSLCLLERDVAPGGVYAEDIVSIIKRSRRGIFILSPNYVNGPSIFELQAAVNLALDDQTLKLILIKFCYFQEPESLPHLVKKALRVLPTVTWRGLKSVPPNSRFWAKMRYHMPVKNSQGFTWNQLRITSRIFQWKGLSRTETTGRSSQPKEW
- assayName: cell-based or functional assay
Answers are plain numbers.

binder	Activity, No BP, DF-2500000
IL-18 variant G3Q, E6H, K53T, D54S, S55Y, N91Y, R104K (ligand) YFQKLHSKLSVIRNLNDQVLFIDQGNRPLFEDMTDSDMRDNAPRTIFIISMYTSYQPRGMAVTISVKSEKISTLSSENKIISFKEMNPPDYIKDTKSDIIFFQKSVPGHDNKMQFESSSYEGYFLASEKERDLFKLILKKEDELGDRSIMFTVQNED	0.31

Provide reported Activity, No BP, DF-2500000 for each item, in the same order as listed.
1. IL-18 variant G3Q, E6Q, K53T, D54W, S55F, N91Y (ligand) YFQKLQSKLSVIRNLNDQVLFIDQGNRPLFEDMTDSDMRDNAPRTIFIISMYTWFQPRGMAVTISVKSEKISTLSSENKIISFKEMNPPDYIKDTKSDIIFFQRSVPGHDNKMQFESSSYEGYFLASEKERDLFKLILKKEDELGDRSIMFTVQNED
2. IL-18 variant E6N, D54N, S55N, N91H, R104P (ligand) YFGKLNSKLSVIRNLNDQVLFIDQGNRPLFEDMTDSDMRDNAPRTIFIISMYKNNQPRGMAVTISVKSEKISTLSSENKIISFKEMNPPDHIKDTKSDIIFFQPSVPGHDNKMQFESSSYEGYFLASEKERDLFKLILKKEDELGDRSIMFTVQNED
3. IL-18 variant G3P, E6H, N91L (ligand) YFPKLHSKLSVIRNLNDQVLFIDQGNRPLFEDMTDSDMRDNAPRTIFIISMYKDSQPRGMAVTISVKSEKISTLSSENKIISFKEMNPPDLIKDTKSDIIFFQRSVPGHDNKMQFESSSYEGYFLASEKERDLFKLILKKEDELGDRSIMFTVQNED
4. IL-18 variant E6T, D54P, S55K, R104S (ligand) YFGKLTSKLSVIRNLNDQVLFIDQGNRPLFEDMTDSDMRDNAPRTIFIISMYKPKQPRGMAVTISVKSEKISTLSSENKIISFKEMNPPDNIKDTKSDIIFFQSSVPGHDNKMQFESSSYEGYFLASEKERDLFKLILKKEDELGDRSIMFTVQNED

1: 0.17; 2: 0.07; 3: 0.29; 4: 0.1

Provide reported Activity, No BP, DF-2500000 for each item, in the same order as listed.
1. IL-18 variant G3Q, E6N (ligand) YFQKLNSKLSVIRNLNDQVLFIDQGNRPLFEDMTDSDMRDNAPRTIFIISMYKDSQPRGMAVTISVKSEKISTLSSENKIISFKEMNPPDNIKDTKSDIIFFQRSVPGHDNKMQFESSSYEGYFLASEKERDLFKLILKKEDELGDRSIMFTVQNED
2. IL-18 variant G3Q, E6S, S55V, T63A, N91T (ligand) YFQKLSSKLSVIRNLNDQVLFIDQGNRPLFEDMTDSDMRDNAPRTIFIISMYKDVQPRGMAVAISVKSEKISTLSSENKIISFKEMNPPDTIKDTKSDIIFFQRSVPGHDNKMQFESSSYEGYFLASEKERDLFKLILKKEDELGDRSIMFTVQNED
3. IL-18 variant G3P, E6K, D54Y, S55P, Q56H, T63S, N91S, R104Q (ligand) YFPKLKSKLSVIRNLNDQVLFIDQGNRPLFEDMTDSDMRDNAPRTIFIISMYKYPHPRGMAVSISVKSEKISTLSSENKIISFKEMNPPDSIKDTKSDIIFFQQSVPGHDNKMQFESSSYEGYFLASEKERDLFKLILKKEDELGDRSIMFTVQNED
4. IL-18 variant G3T, E6Q, K53G, D54G, S55H, T63A, S65T, N91R, R104Q (ligand) YFTKLQSKLSVIRNLNDQVLFIDQGNRPLFEDMTDSDMRDNAPRTIFIISMYGGHQPRGMAVAITVKSEKISTLSSENKIISFKEMNPPDRIKDTKSDIIFFQQSVPGHDNKMQFESSSYEGYFLASEKERDLFKLILKKEDELGDRSIMFTVQNED
5. IL-18 variant G3H, E6Q, K53N, D54S, S55P, T63A, N91I, R104S (ligand) YFHKLQSKLSVIRNLNDQVLFIDQGNRPLFEDMTDSDMRDNAPRTIFIISMYNSPQPRGMAVAISVKSEKISTLSSENKIISFKEMNPPDIIKDTKSDIIFFQSSVPGHDNKMQFESSSYEGYFLASEKERDLFKLILKKEDELGDRSIMFTVQNED
6. IL-18 variant G3R, E6D, D54A, S55Q, T63S, N91K, R104P (ligand) YFRKLDSKLSVIRNLNDQVLFIDQGNRPLFEDMTDSDMRDNAPRTIFIISMYKAQQPRGMAVSISVKSEKISTLSSENKIISFKEMNPPDKIKDTKSDIIFFQPSVPGHDNKMQFESSSYEGYFLASEKERDLFKLILKKEDELGDRSIMFTVQNED
7. IL-18 variant E6D, D54T, S55W, T63S, N91S, R104T (ligand) YFGKLDSKLSVIRNLNDQVLFIDQGNRPLFEDMTDSDMRDNAPRTIFIISMYKTWQPRGMAVSISVKSEKISTLSSENKIISFKEMNPPDSIKDTKSDIIFFQTSVPGHDNKMQFESSSYEGYFLASEKERDLFKLILKKEDELGDRSIMFTVQNED
8. IL-18 variant E6G, D54A, S55K, T63S, N91K, Q114R (ligand) YFGKLGSKLSVIRNLNDQVLFIDQGNRPLFEDMTDSDMRDNAPRTIFIISMYKAKQPRGMAVSISVKSEKISTLSSENKIISFKEMNPPDKIKDTKSDIIFFQRSVPGHDNKMRFESSSYEGYFLASEKERDLFKLILKKEDELGDRSIMFTVQNED

1: 1.85; 2: 1.61; 3: 0.53; 4: 0.12; 5: 0.07; 6: 0.07; 7: 0.18; 8: 1.61
